system: HT29 colon; test: NCI tumour cell line growth inhibition, 48 h
Provide the reported TGI of each item.

Reported TGI of "CC(=O)NC1=C(NCC(C)(C)C)C(=O)c2ccccc2C1=O" : > 100 µM

Value of measured TGI for the entry CCCCS(=O)(=O)CCC(N)P(=O)(O)O (configuration not stated) : > 100 µM

Please fill in: TGI reported for "CC1=CC(=O)[C@@H](O)[C@]2(C)[C@H]3[C@@]4(O)OC[C@]35[C@H]([C@@H](C)[C@H]4O)[C@@H](OC(=O)C(C)(C)CO)C(=O)O[C@@H]5C[C@@H]12" = 10.4 µM

Query "O=c1ccn([C@@H]2C[C@H]2CO)c(=O)[nH]1" yields TGI of > 100 µM

Form field TGI, entry "COc1ccc2c(c1)C1(C=N2)CCN(C(C)=O)CC1" : > 100 µM

Just so you know, measured TGI for "Fc1ccc(Nc2ncnc3ccc(-c4cnc5[nH]ccc5c4)cc23)cc1Cl" came out at > 25.1 µM

Briefly, TGI measured for CCN(CC)CC(C(=O)Nc1c(C)cccc1C)/C(C)=N\NC(=O)C[N+](C)(C)C (configuration not stated) : > 100 µM

Looking up CC(C)c1ccc(C(C)C(=O)N(CC2=C(C(C)c3ccccn3)c3ccccc3C2)C(C)C)cc1 (configuration not stated) , I found its TGI recorded as 3.77 µM

// sample NC(CSC(c1ccccc1)(c1ccccc1)c1ccc2c(c1)OCO2)C(=O)O (configuration not stated) , its TGI was > 44.5 µM

In plain terms, "O=C1c2cccnc2-c2nc(-c3ccccc3[N+](=O)[O-])cc3c2c1nc1ccccc13" has a documented TGI of 33.2 µM

compound O=C(C1OC1c1ccc(Cl)cc1)C12CC3CC(CC(C3)C1)C2 (configuration not stated) , TGI observed: 41.9 µM

Briefly, TGI measured for "Cc1ccc(N=N/C(=N/NC(=O)c2cc(Cl)ccc2O)c2ccc(N(CCC#N)CCC#N)cc2C)cc1" : 60.6 µM

Lab note: "Cc1ccc2c(c1)[nH]c(=S)n2C=C(C(N)=O)C(N)=O" gave TGI of > 100 µM

get_value(item= "O=C(CCl)N1c2ccccc2Oc2ccc3ccccc3c21" , readout=TGI) returns 1.51 µM

Lookup result for "NC(N)=Nc1ccc(-c2ccc(N=C(N)N)cc2)cc1" ; measured TGI: > 100 µM

Just so you know, measured TGI for "CC1(C)CCc2ccc(OCCC(=O)O)cc2O1" came out at > 100 µM

Per the records, this compound ( "O=C(O)c1cc(C(=O)O)cc(N2C(=O)c3ccccc3C2=O)c1" ) has TGI equal to > 100 µM

Looking up "CCOC(=O)c1ncn2c1[nH]c(=S)c1ccccc12" , I found its TGI recorded as > 100 µM

Notebook: "O=C(O)CCSC(=O)Nc1cccc(F)c1" , TGI read as > 100 µM

Quick note, TGI for "O=C(Nc1ccc(F)cc1F)c1cc(I)ccc1O" landed at > 100 µM

TGI recorded for this compound, Cc1c2n(c(=O)[nH]c1=O)C1OC(CO)C(O2)C1N=[N+]=[N-] (configuration not stated) , is > 100 µM

Lab book: TGI of "CCc1ccc2c(c1)C(=O)c1c-2n(CCCBr)c(=O)c2cc([N+](=O)[O-])ccc12" noted as > 50 µM

----------
tested on: HS 578T breast; experiment: NCI tumour cell line growth inhibition, 48 h
Using TGI as the sorting value, the categories are bottom range: < 7 µM; center range: ≥ 7 µM and < 70 µM; top range: ≥ 70 µM

Q) For "c1ccc(C(C2=Nc3cccc4cccc(c34)N2)c2ccccc2)cc1" , which TGI bin applies?
A) top range

Q) Looking at "O=C1c2cccnc2-c2nc(-c3ccccc3[N+](=O)[O-])cc3c2c1nc1ccccc13" , which class would you pick?
A) top range

Q) Class label required: "COc1ccc(C2=CSc3cc(Cl)c(C)cc3S(=O)(=O)N2C(C)=O)cc1"
A) top range

Q) // bin(item) where item = "Clc1cccc(Cc2cn3cc(-c4ccccc4)nc3s2)c1Cl"
A) top range

Q) Lab log: "C/C(=C\CO)CC/C=C(\C)CNc1c(F)c(F)c(F)c(F)c1F" — assign TGI category
A) top range

Q) Please let me know in which category the item "Cc1c(-c2ccc(O)cc2)n(CCCCCCNCCOC(=O)NCCCc2ccc(N(CCCl)CCCl)cc2)c2ccc(O)cc12" belongs.
A) center range

Q) Kindly state the category for this compound: "COc1cc(-c2ccc(Br)[nH]2)[nH]c1C=NCC(C)C"
A) bottom range

Q) Any idea which band "COc1ccccc1CCN1CCN(CCCc2ccccc2)CC1" is in?
A) top range

Q) Class (by measured TGI) for "CC1=CC(=O)[C@@H](O)[C@]2(C)[C@H]3[C@@]4(O)OC[C@]35[C@H]([C@@H](C)[C@H]4O)[C@@H](OC(=O)C(C)(C)CO)C(=O)O[C@@H]5C[C@@H]12"
A) bottom range

Q) Could you place CC(=O)Oc1c(C)c2c(c3ncccc13)OC(C)C2 (stereo unspecified) in its proper category? Many thanks.
A) center range

Q) Given "CCN(CC)c1ccc2cc(C(N)=O)c(=N)oc2c1" , name the class its TGI places it in.
A) center range

Q) GET /class?item= CN(C)c1ccc(C2CC(c3ccc4ccccc4c3O)=NN2)cc1 (stereo unspecified)
A) top range

Q) Bin? O=C(Nc1ccccc1)OCCN=C1c2ccccc2C(Br)C(Br)c2ccccc21 (stereo unspecified)
A) center range

----------
Give measured TGI for each item. Keep answers brief.
tested on: NCI-H460 lung; assay: NCI tumour cell line growth inhibition, 48 h

For record "CSCCCN(CCCSC)CCCSC" the listed TGI is > 100 µM

The molecule "CC(=O)c1cccc(Nc2nc3ccccc3c3occc23)c1" showed TGI equal to > 100 µM

Lab note: measured TGI of CN1CCc2cc3c(c4c2C1C(O)c1ccccc1-4)OCO3 (stereo not drawn) was 11.9 µM

The recorded TGI for CCOC(=O)C1=C(C)CC2C(=O)OC(=O)C2C1(C)C (stereo not drawn) is > 100 µM

Measured TGI, "O=C(CN1CCN(c2cc3c(cc2F)c(=O)c(C(=O)N/N=C/c2ccccc2O)cn3C2CC2)CC1)N/N=C\c1ccccc1O" : > 48.7 µM

According to the records, this molecule "N#Cc1cccc2c1Sc1ccccc1N2" displays TGI of > 100 µM

Recorded result, NC(CCCCCCCCCCP(=O)(O)O)C(=O)O (stereo not drawn) , TGI: > 100 µM

What the record says about "COc1cc2nc(-c3ccc(C(F)(F)F)cc3)cc(OCCCN3CCC(O)CC3)c2cc1OC" : TGI is 16 µM

// TGI lookup, molecule = "CC(=O)N1[C@H](C(=O)O)CS[C@H]1c1ccncc1" , result: > 100 µM

The reported value for "NC(=O)C(=CNC(N)=S)C(N)=O" in terms of TGI is > 100 µM

What the record says about "CC1(C)CCc2ccc(OCCC(=O)O)cc2O1" : TGI is > 100 µM

TGI reading for CC(=O)OC(C)C(=O)C1c2cccc(O)c2C(=O)c2c(O)cc(C)cc21 (stereo not drawn) : 1.35 µM

// "CC(C)(C)c1cc(C(=O)/C=C/c2c(Cl)cccc2Cl)cc(C(C)(C)C)c1O" : TGI value = 24 µM

Lab book: TGI of "O=C(NCCNc1nccc(-c2c(-c3cccc(O)c3)nc3sccn23)n1)c1ccccc1O" noted as 19.6 µM

Item: "Cc1nc2c(nc1C)C(=O)c1ccccc1C2=O" | TGI: 3.2 µM

TGI measured on O=C(Nc1ccccc1)OCCN=C1c2ccccc2C(Br)C(Br)c2ccccc21 (stereo not drawn) = 19.5 µM

response.value for "COc1ccc2c(c1)C1(C=N2)CCN(C(C)=O)CC1" (field: TGI) = > 100 µM

According to the records, this molecule NS(=O)(=O)c1ccccc1C(=O)N/N=C(\c1nc2ccc([N+](=O)[O-])cc2[nH]c1=O)C(O)c1ccc([N+](=O)[O-])cc1 (stereo not drawn) displays TGI of > 100 µM

response.value for "CC1=NN(c2nc(N)nc(/C(C#N)=C/c3ccccc3O)n2)C(C)(C)C1" (field: TGI) = 40.9 µM

Record "Cc1cc(=O)[nH]c2cc3oc4ccccc4c3cc12" , field TGI: > 100 µM

Short answer for "C[N+](C)(CCCn1ccnc1[N+](=O)[O-])CCCn1ccnc1[N+](=O)[O-]" : TGI was > 100 µM

Summary for this molecule, "COc1c2ccoc2c(/C=C/C=O)c2oc(-c3ccccc3)cc(=O)c12" : TGI is 61.4 µM

CCNC1C2(CCCCC2)NC(=O)C12CCCCC2 (stereo not drawn) has a reported TGI of > 100 µM

These measurements were taken from PubChem BioAssay (NCI).
